Form field: pIC50, inhibition of ascorbate/Fe^2+ -dependent lipid peroxidation (one value per entry).
Tested on: lipid peroxidation
Test: Ascorbate/Fe^2+ -dependent lipid peroxidation
Format: biochemical
Settings: ascorbate/Fe^2+ model, in vitro

[[record]]
compound = "Cc1c(C)c2c(c(C)c1O)CCC(C)(CCCC(C)CCCC(C)CCCC(C)C)O2 (stereo not drawn) [α-Tocopherol, reference compound]"
reported = 5.0

[[record]]
compound = "COc1cc(C)c2c(c1)C1Cc3ccccc3C1N2 (stereo not shown)"
reported = 8.0

[[record]]
compound = "COc1cc(C)c2c(c1)C1c3ccccc3CC1N2 (stereo not shown)"
reported = 8.2


Query :: Answer with the recorded pIC50, inhibition of ascorbate/Fe^2+ -dependent lipid peroxidation for the compound listed here: Cc1cc(C)c2c(c1)C1(C)Cc3ccccc3C1(C)N2 (stereo not shown) [Compound III, 4b,6,8,9b-Tetramethyl-THll, reference compound]
Result :: 7.4
